Species: Homo sapiens
Experiment: Selectivity ratio of IC50 for inhibition of N-terminal GST-fused human wild type LRRK2 to IC50 for inhibition of N-terminal GST-fused human […] mutant
property.name: Ratio IC50

CC1=C(C(=O)Nc2ccc3[nH]nc(-c4ccccc4)c3c2)C(C)(C)n2nnnc2N1C = > 33
CC1=C(C(=O)Nc2ccn3cnc(C)c3c2)Cn2nnnc2N1C = > 7.4
CC1=C(C(=O)Nc2ccc3[nH]nc(-c4ccc(S(N)(=O)=O)cc4)c3c2)Cn2nnnc2N1C = > 3.5
CCCC(=O)Nc1n[nH]c2ccc(NC(=O)C3=C(C)N(C)c4nnnn4C3)cc12 = > 8.4
